Biological target: MRGPRX2 (Homo sapiens, UniProt Q96LB1)
Sequence (Q96LB1 whole entry): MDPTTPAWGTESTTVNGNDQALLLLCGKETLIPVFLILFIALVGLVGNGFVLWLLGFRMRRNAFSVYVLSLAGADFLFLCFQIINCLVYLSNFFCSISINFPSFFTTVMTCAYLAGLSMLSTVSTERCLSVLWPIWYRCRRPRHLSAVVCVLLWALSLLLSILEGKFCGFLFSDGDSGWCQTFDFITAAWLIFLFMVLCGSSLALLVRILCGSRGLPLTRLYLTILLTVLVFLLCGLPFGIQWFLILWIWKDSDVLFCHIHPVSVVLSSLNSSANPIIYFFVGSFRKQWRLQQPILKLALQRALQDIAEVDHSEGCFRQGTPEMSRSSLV
Assay: TANGO β-arrestin recruitment assay, MRGPRX2
Type: cell-based
Conditions: NCC-1 screen, confirmed in concentration-response studies
recorded_metric: activity in the TANGO assay at MRGPRX2

Some solved entries appear below for comparison.
>>> df
                                   compound                         recorded_metric                result
0  CN1CC[C@]23CCCC[C@H]2[C@H]1Cc1ccc(O)cc13 [levorphan]  activity in the TANGO assay at MRGPRX2       showed activity
1  CC(C)[C@@H](CN1CC[C@@](C)(c2cccc(O)c2)[C@@H](C)C1)NC(=O)[C@H]1Cc2ccc(O)cc2CN1 [JDTic]  activity in the TANGO assay at MRGPRX2  significant activity
2  COc1ccc2c(c1)[C@]13CCCC[C@@H]1[C@H](C2)N(C)CC3 [dextromethorphan]  activity in the TANGO assay at MRGPRX2       showed activity
3  COC(=O)[C@@H]1C[C@H](OC(=O)CSC#N)C(=O)[C@H]2[C@@]1(C)CC[C@H]1C(=O)O[C@H](c3ccoc3)C[C@]21C [RB64]  activity in the TANGO assay at MRGPRX2  significant activity

// activity in the TANGO assay at MRGPRX2 (MRGPRX2 (Homo sapiens, UniProt Q96LB1)) for CN1CCC(=C2c3ccccc3C=Cc3ccccc32)CC1 [cyproheptadine] = showed activity

Readout activity in the TANGO assay at MRGPRX2 for CN1CCC(=C2c3ccccc3CCc3sccc32)CC1 [pizotyline] , test system MRGPRX2 (Homo sapiens, UniProt Q96LB1), was showed activity

Assay MRGPRX2 (Homo sapiens, UniProt Q96LB1), sample CN1CCC(=C2c3ccccc3CC(=O)c3sccc32)CC1 [ketotifen] , activity in the TANGO assay at MRGPRX2 read: showed activity
